subject.of.test: T1, human CD4 on cells (SKW3 cells; human PBMCs) (human, UniProt P01730 26-458)
T1 construct: whole, on cells; SKW3 CD4 knockout cells served as the negative cell line for the WT vs KO ratios; also called hCD4; SKW3 WT
method.summary: SKW3 FACS binning; competitor OKT4-A488 added after supernatant (background 2163, max binding 8200)

- binder: "75110_02E22A (antibody, V domains shown, Tested as non-clonal hybridoma supernatant (AlivaMab Mouse Kappa), detected with anti-mouse Fc and anti-human kappa) VH: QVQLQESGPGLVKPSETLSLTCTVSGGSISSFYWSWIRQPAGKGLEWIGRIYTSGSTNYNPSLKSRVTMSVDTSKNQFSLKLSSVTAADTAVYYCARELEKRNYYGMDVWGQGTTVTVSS VL: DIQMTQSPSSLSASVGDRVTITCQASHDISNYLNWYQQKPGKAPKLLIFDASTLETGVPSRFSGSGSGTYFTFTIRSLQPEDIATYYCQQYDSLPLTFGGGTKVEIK"
  OKT4 A488 signal in binning: 8480
- binder: "75110_02I18A (antibody, V domains shown, Tested as non-clonal hybridoma supernatant (AlivaMab Mouse Kappa), detected with anti-mouse Fc and anti-human kappa) VH: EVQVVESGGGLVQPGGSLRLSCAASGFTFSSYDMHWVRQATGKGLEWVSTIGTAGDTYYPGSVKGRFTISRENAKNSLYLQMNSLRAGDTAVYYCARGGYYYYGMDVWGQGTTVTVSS VL: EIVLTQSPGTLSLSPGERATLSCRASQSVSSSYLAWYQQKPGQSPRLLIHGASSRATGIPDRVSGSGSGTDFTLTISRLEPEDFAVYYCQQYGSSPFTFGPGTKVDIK"
  OKT4 A488 signal in binning: 9230
- binder: "75110_05E05A (antibody, V domains shown, Tested as non-clonal hybridoma supernatant (AlivaMab Mouse Kappa), detected with anti-mouse Fc and anti-human kappa) VH: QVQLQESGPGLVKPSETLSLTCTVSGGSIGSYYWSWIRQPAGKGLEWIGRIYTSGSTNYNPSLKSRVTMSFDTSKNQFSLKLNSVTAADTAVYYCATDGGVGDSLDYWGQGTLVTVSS VL: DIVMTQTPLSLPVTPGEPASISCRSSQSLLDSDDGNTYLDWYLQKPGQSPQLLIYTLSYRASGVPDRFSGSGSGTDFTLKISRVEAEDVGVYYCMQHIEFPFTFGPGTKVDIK"
  OKT4 A488 signal in binning: 9100
- binder: "75110_08A13A (antibody, V domains shown, Tested as non-clonal hybridoma supernatant (AlivaMab Mouse Kappa), detected with anti-mouse Fc and anti-human kappa) VH: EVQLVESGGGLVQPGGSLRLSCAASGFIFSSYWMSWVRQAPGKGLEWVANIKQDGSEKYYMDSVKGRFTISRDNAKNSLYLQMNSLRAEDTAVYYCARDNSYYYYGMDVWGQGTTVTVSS VL: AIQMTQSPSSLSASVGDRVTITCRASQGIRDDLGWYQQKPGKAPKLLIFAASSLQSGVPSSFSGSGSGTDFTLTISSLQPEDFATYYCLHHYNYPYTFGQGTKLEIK"
  OKT4 A488 signal in binning: 7980
